Cited source for all entries: ChEMBL document CHEMBL3745654

Let's go through some recorded Ki values for UniProt P08908 together.
Sequence (P08908 whole entry): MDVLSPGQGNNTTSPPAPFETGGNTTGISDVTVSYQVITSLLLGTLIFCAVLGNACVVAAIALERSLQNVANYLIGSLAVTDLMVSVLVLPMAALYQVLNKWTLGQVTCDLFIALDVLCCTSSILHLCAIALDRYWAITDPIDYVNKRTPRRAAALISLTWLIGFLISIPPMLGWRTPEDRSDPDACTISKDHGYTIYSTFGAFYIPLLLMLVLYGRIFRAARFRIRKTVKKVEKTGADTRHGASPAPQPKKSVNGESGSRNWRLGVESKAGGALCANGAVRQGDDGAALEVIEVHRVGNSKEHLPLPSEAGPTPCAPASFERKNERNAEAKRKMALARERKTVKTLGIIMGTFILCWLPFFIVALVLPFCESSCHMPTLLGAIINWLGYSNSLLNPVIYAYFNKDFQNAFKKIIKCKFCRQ

Past entries and their recorded results:
structure.smiles	tested.target	Ki
CN(C1CCN(CCOc2ccccc2C(C)(C)C)CC1)S(=O)(=O)c1ccccc1	UniProt P08908	2350 nM
CC(C)c1ccccc1OCCN1CCC(N(CC2CC2)S(=O)(=O)c2ccc(F)cc2)CC1	UniProt P08908	249 nM
O=S(=O)(c1ccc(F)cc1)N(CC1CC1)C1CCN(CCOc2ccccc2-c2ccccc2)CC1	UniProt P08908	342 nM
CC(C)c1ccccc1OCCN1CCC(N(CC2CC2)S(=O)(=O)c2cnn(C)c2)CC1	UniProt P08908	214 nM
CC(C)c1ccccc1OCCN1CCC(N(C)S(=O)(=O)c2cnn(C)c2)CC1	UniProt P08908	346 nM

Input line: Please respond with reported Ki (system UniProt P08908) for `Cn1cc(S(=O)(=O)N(CC2CC2)C2CCN(CCOc3ccccc3C(C)(C)C)CC2)cn1` .
Output line: 17800 nM

Input line: Please respond with reported Ki (system UniProt P08908) for `CC(C)c1ccccc1OCCN1CCC(N(CC2CC2)S(=O)(=O)c2cccc(F)c2)CC1` .
Output line: 158 nM

Input line: Please respond with reported Ki (system UniProt P08908) for `CN(C1CCN(CCOc2ccccc2C(C)(C)C)CC1)S(=O)(=O)c1cccc(F)c1` .
Output line: 4510 nM

Input line: Please respond with reported Ki (system UniProt P08908) for `CN(C1CCN(CCOc2ccccc2-c2ccccc2)CC1)S(=O)(=O)c1ccccc1` .
Output line: 62 nM

Input line: Please respond with reported Ki (system UniProt P08908) for `CN(C1CCN(CCOc2ccccc2C(C)(C)C)CC1)S(=O)(=O)c1cnn(C)c1` .
Output line: 9630 nM

Input line: Please respond with reported Ki (system UniProt P08908) for `CC(C)c1ccccc1OCCN1CCC(N(C)S(=O)(=O)c2ccccc2)CC1` .
Output line: 140 nM

Input line: Please respond with reported Ki (system UniProt P08908) for `CN(C1CCN(CCOc2ccccc2C(C)(C)C)CC1)S(=O)(=O)c1ccc(F)cc1` .
Output line: 9050 nM

Input line: Please respond with reported Ki (system UniProt P08908) for `CN(C1CCN(CCOc2ccccc2-c2ccccc2)CC1)S(=O)(=O)c1cnn(C)c1` .
Output line: 80 nM

Input line: Please respond with reported Ki (system UniProt P08908) for `CC(C)c1ccccc1OCCN1CCC(N(C)S(=O)(=O)c2ccc(F)cc2)CC1` .
Output line: 180 nM
